Tested on: Trypanosoma cruzi Tulahuen cells expressing beta-galactosidase
Experiment: T. cruzi intracellular assay (beta-galactosidase, L6 host cells)
Conditions: Trypanosoma cruzi, TULAHUEN, read-out: IC50 T. cruzi (footnote c: value obtained from one trial), Table 2; one trial
pIC50: −log10 of the molar value.
value_kind: pIC50

Query :: Looking for the measured pIC50 of "O=C1/C(=C/c2ccccc2Cl)Nc2ccccc21" , can you help?
Result :: < 4.30

====

System: Trypanosoma cruzi Tulahuen cells expressing beta-galactosidase
Assay: T. cruzi intracellular assay (beta-galactosidase, L6 host cells)
Conditions: Trypanosoma cruzi, TULAHUEN, read-out: IC50 TC-I, Table 3A; weighted means of two or more independent trials
Each entry falls in a class defined on IC50; the bands are L (below 10 µM), M (10 µM to below 20 µM), H (20 µM or more)

Check out these entries, answers already filled in.
# molecule, cat
records = [
    ("O=C1/C(=C/c2cccc(Cl)c2)Oc2ccccc21 [Aurone 9026]", "M"),
    ("O=C1/C(=C/c2cccc(I)c2)Oc2ccccc21 [Aurone 9028]", "L"),
    ("O=C1/C(=C/c2cccc(C(F)(F)F)c2)Oc2ccccc21 [Sample 9085]", "M"),
    ("O=C1/C(=C/c2cccc([N+](=O)[O-])c2)Oc2ccccc21 [Sample 2015]", "H"),
    ("O=C1/C(=C/c2ccccc2Br)Oc2ccccc21 [Aurone 9006]", "H"),
    ("O=C1/C(=C/c2ccccc2)Oc2ccccc21 [Aurone 6615, (Z)-2-benzylidenebenzofuran-3(2H)-one]", "M"),
]

Query :: Kindly identify the class of N#Cc1cccc(/C=C2\Oc3ccccc3C2=O)c1 [Sample 9070] .
Result :: M

Query :: Class label required: COC(=O)c1ccc(/C=C2\Oc3ccccc3C2=O)cc1 [Aurone 9047]
Result :: H

====

Test system: Trypanosoma brucei brucei 427 cells
Experiment: T. brucei culture and assay (PrestoBlue)
Assay type: cell-based
Conditions: Table 3B; estimated from highest L6 dose tested where no L6 IC50
Could you please report measured Selectivity L6/Tb for the items listed next?

# compound_structure_string, Selectivity L6/Tb
measured = [
    ("O=C1/C(=C/c2ccoc2)Oc2ccccc21", ">2.39"),
    ("O=C1/C(=C/c2cccc(Br)n2)Oc2ccccc21", ">4.96"),
    ("O=C1/C(=C/c2ccsc2)Oc2ccccc21", ">2.58"),
]

Next, consider the following compound.
Query :: Give its Selectivity L6/Tb value. Item: "O=C1/C(=C/c2cc3ccccc3o2)Oc2ccccc21"
Result :: >4.96

====

Tested on: Leishmania amazonensis promastigotes expressing beta-lactamase
Assay: microbe, parasite or virus in culture
Type: cell-based
Settings: Leishmania amazonensis, read-out: IC50 L. amaz.
value_kind: IC50

Guide cases for IC50, answers given:
# molecule, test_target, val
records = [
    ("COc1ccc2c(c1)O/C(=C\\c1ccc(Br)cc1)C2=O [Aurone 5005]", "Leishmania amazonensis promastigotes expressing beta-lactamase", "14.3 µM"),
    ("O=C1/C(=C/c2ncc[nH]2)Oc2ccccc21 [Aurone 2026]", "Leishmania amazonensis promastigotes expressing beta-lactamase", "< 1 µM"),
    ("COc1ccc(/C=C2\\Oc3ccccc3C2=O)cc1 [Aurone 6601]", "Leishmania amazonensis promastigotes expressing beta-lactamase", "3.3 µM"),
]

State the recorded IC50 for every item in the following list.
1. COc1ccc2c(c1)O/C(=C\c1ccc(C#N)cc1)C2=O [Aurone 5006]
2. O=C1/C(=C/c2cc(Br)c(Br)s2)Oc2ccccc21 [Aurone 9050]

Result ::
1. 4.79 µM
2. 9.24 µM

====

For each entry below, report its pIC50 value.
System: Leishmania amazonensis promastigotes expressing beta-lactamase
Assay: microbe, parasite or virus in culture
Type: cell-based
Settings: Leishmania amazonensis, read-out: IC50 L. amaz. (footnote c: value obtained from one trial)
Answers are plain numbers, as −log10 of the molar value.

# compound_structure_string, val
rows = [
    ("CCc1ccc(/C=C2\\Oc3ccccc3C2=O)cc1", 5.19),
    ("O=C1/C(=C/c2ccccc2F)Oc2ccccc21", 4.98),
]

Lab note: next molecule to report on.
Query :: Fill in the blank: the reported pIC50 of "CC(C)c1ccc(/C=C2\Oc3ccccc3C2=O)cc1" is ____.
Result :: 5.54

====

Tested on: Leishmania amazonensis promastigotes expressing beta-lactamase
Assay: microbe, parasite or virus in culture
Assay type: cell-based
Details: Leishmania amazonensis, read-out: IC50 L. amaz.
Answer each item with its documented pIC50.
Numbers only, as −log10 of the molar value.

Some compounds with recorded pIC50:
# compound_structure_string, pIC50
measured = [
    ("O=C1/C(=C/c2ccc(O)cc2)Oc2ccccc21", 5.80),
    ("COc1cc(Br)c(/C=C2\\Oc3ccccc3C2=O)cc1OC", 5.74),
    ("COc1ccc(/C=C2\\Oc3cc(O)ccc3C2=O)cc1O", 5.19),
]

Please report pIC50 for every entry that follows.
1. COc1cc(OC)c2c(c1)O/C(=C\c1ccc(C#N)cc1)C2=O
2. O=C1/C(=C/c2ccc(/C=C3\Oc4ccccc4C3=O)cc2)Oc2ccccc21
3. O=C1/C(=C/c2ccc(Br)cn2)Oc2ccccc21
4. Cc1ccc(/C=C2\Oc3ccc(Br)cc3C2=O)cc1
5. COc1cc(/C=C2\Oc3ccccc3C2=O)cc(OC)c1OC
6. O=C1/C(=C/c2cccc([N+](=O)[O-])c2)Oc2ccccc21

Result ::
[5.68, 5.44, 5.58, 5.07, 4.90, 5.77]

====

System: rat skeletal muscle cell line, L6
Assay: cells
Type: cell-based
Conditions: Rattus norvegicus; Table 1; read-out: IC50 Toxicity (L6)
Hi there, I'd appreciate the recorded IC50 for every entry that follows.

Give IC50 for each listed item.
1. O=C1/C(=C/c2ccc(Br)cn2)Oc2ccccc21 [Aurone 3011]
2. O=C1/C(=C/c2cccc(C(F)(F)F)c2)Oc2ccccc21 [Aurone 9085]
3. O=C1/C(=C/c2ccncc2)Oc2ccccc21 [Aurone 2008]
4. O=C1/C(=C/c2cccc(Br)n2)Oc2ccccc21 [Aurone 9260]
5. O=C1/C(=C/c2ccccc2F)Oc2ccccc21 [Aurone 9004]
6. COc1ccc(/C=C2\Oc3ccccc3C2=O)cc1 [Aurone 6601]

Result ::
1. > 100 µM
2. 73.4 µM
3. 81.1 µM
4. > 100 µM
5. 176 µM
6. > 100 µM

====

Tested on: Trypanosoma cruzi Tulahuen trypomastigotes
Assay: T. cruzi extracellular assay (CellTiter Glo)
Format: cell-based
Conditions: Trypanosoma cruzi, TULAHUEN; Table 2; extracellular assay; read-out: IC50 T. cruzi (footnote b: Extracellular T. cruzi assay)
value_kind: IC50

# molecule, IC50
data = [
    ("COc1ccc(/C=C2\\Oc3ccc(C)cc3C2=O)c(OC)c1OC [Aurone 4004]", "> 50 µM"),
    ("Cc1ccc2c(c1)C(=O)/C(=C/c1ccc(C#N)cc1)O2 [Aurone 4001]", "31.7 µM"),
    ("N=C1/C(=C/c2ccccn2)Oc2ccc(F)cc21 [Aurone 9312]", "> 50 µM"),
]

The following molecules each have a reported value; give each one's IC50.
1. CC(=O)N1/C(=C\c2ccc(CO)o2)C(=O)c2ccccc21 [AA4A]
2. Cc1ccc2c(c1)C(=O)/C(=C/c1ccc(O)cc1)O2 [Aurone 4005]
3. O=C1/C(=C/c2cc(Br)cc(Br)c2O)Oc2ccccc21 [Aurone 3012]
4. Cc1ccc2c(c1)C(=O)/C(=C/c1ccccc1C(F)(F)F)O2 [Aurone 4006]
5. Cc1cccc(/C=C2\Oc3ccccc3C2=O)c1 [Aurone 9064]

Result ::
["> 50 µM", "> 50 µM", "40.1 µM", "15.8 µM", "18.4 µM"]

Dear colleague, could you send me IC50 for each of the items below? Thanks.
1. N#Cc1ccc(/C=C2\Oc3ccc(Br)cc3C2=O)cc1 [Aurone 6003]
2. COc1cc(OC)c2c(c1)O/C(=C\c1ccc(C#N)cc1)C2=O [Aurone 7002]
3. O=C1/C(=C/c2ccc(CO)o2)Sc2ccccc21 [TA2]

Result ::
1. > 50 µM
2. > 50 µM
3. > 50 µM

Query :: State the recorded IC50 for this entry: O=C1/C(=C/c2ccc(C(F)(F)F)cc2)Oc2ccc(Br)cc21 [Aurone 6001]
Result :: > 50 µM

====

Tested on: Trypanosoma cruzi Tulahuen cells expressing beta-galactosidase
Assay: T. cruzi intracellular assay (beta-galactosidase, L6 host cells)
Conditions: read-out: IC50 TC-I; Table 3C; intracellular T. cruzi; weighted means of two or more independent trials
pIC50: −log10 of the molar value.
value_kind: pIC50

Query :: Query: pIC50; subject: O=C1/C(=C/[c-]2cccc2)Oc2ccccc21.[Fe+2].c1cc[cH-]c1 [Aurone 3001]
Result :: < 4.30

====

Test system: Leishmania amazonensis promastigotes expressing beta-lactamase
Assay: microbe, parasite or virus in culture
Format: cell-based
Settings: Leishmania amazonensis, read-out: IC50 L. amaz.
Exercise: for every item that follows, state its recorded pIC50.
Answers are plain numbers, as −log10 of the molar value.

Some compounds with recorded pIC50:
# compound, pIC50
rows = [
    ("Cc1cccc(/C=C2\\Oc3ccccc3C2=O)c1 [Aurone 9064]", 5.36),
    ("N#Cc1ccc(/C=C2\\Oc3ccc(Br)cc3C2=O)cc1 [Aurone 6003]", 5.91),
    ("O=C1/C(=C/c2cccs2)Oc2c1ccc(O)c2O [Aurone 1001]", 4.64),
    ("O=C1/C(=C/c2sccc2Br)Oc2ccccc21 [Aurone 9060]", 5.87),
    ("COC(=O)c1ccc(/C=C2\\Oc3ccccc3C2=O)cc1 [Aurone 9047]", 4.62),
]

# map each compound to its pIC50
1. Cc1ccc(/C=C2\Oc3ccccc3C2=O)cc1 [Aurone 9065]
2. O=C1/C(=C/c2ccc(C(F)(F)F)cc2)Oc2cc(O)ccc21 [Aurone 2909]

Result ::
1. 5.86
2. 5.40
